Documented Kd across a set of binders
Target: T1, Human PD-L1 Fc-fusion protein (R&D Systems, 156-B7) (Homo sapiens, UniProt Q9NZQ7)
T1 construct: programmed death-ligand 1 (PD-L1, B7-H1, CD274), human; also called huPD-L1; B7-H1; source: bought: R&D Systems (156-B7)
T1 sequence (Q9NZQ7 19-238): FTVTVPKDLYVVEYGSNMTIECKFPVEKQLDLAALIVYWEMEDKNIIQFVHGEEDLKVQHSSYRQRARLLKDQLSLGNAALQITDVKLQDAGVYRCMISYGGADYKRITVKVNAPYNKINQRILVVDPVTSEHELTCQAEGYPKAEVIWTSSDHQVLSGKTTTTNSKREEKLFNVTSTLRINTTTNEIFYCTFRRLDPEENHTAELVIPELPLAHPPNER
Assay: SPR; Biacore T200, 25°C, HBS (0.01 M HEPES pH 7.4, 0.15 M NaCl, 3 mM EDTA, 0.005% Tween 20); mouse or human PD-L1 Fc-fusion protein amine-coupled on a CM5 chip (650-900 RU); Nb in crude periplasmic extract as analyte, its concentration estimated by CFCA; 9 dilutions, 120 s association, 160 s dissociation; 1-to-1 fit; affinity estimations
Conditions: one partner purified
observable: Kd (nM)

binder | observable | reading
Nb C1 (HA-tagged, in periplasmic extract) (VHH, source: E. coli WK6 (pHEN4), crude periplasmic extract) VHH: QVQLQESGGGLVQTGGSLRLSCAASGSTVSSSMMAWWRQTPGNQRELVALVARGNNTNYVDSVKGRFTVSRDNAKNTMYLQMNSLKPEDTAVYYCRILSVNGIWYWGQGTQVTVSS | Kd | 143
Nb C10 (HA-tagged, in periplasmic extract) (VHH, source: E. coli WK6 (pHEN4), crude periplasmic extract) VHH: QVQLQESGGGLVQTGGSLRLSCAASGSTVSSSTMAWWRQTPGNQRELVALVASGGNTNYVDSVKGRFTVSRDNAKNTMYLQMNSLKPEDTAVYYCRILSMNGIWYWGQGTQVTVSS | Kd | 141

Data credit: paper PMC5522039
